The reported measurements were obtained from BindingDB's records for doi:10.1007/s10822-022-00478-x.

This listing pairs compounds with measured IC50.
Target: cAMP and cAMP-inhibited cGMP 3',5'-cyclic phosphodiesterase 10A (Homo sapiens, UniProt Q9Y233)
Sequence (Q9Y233 as listed by the source): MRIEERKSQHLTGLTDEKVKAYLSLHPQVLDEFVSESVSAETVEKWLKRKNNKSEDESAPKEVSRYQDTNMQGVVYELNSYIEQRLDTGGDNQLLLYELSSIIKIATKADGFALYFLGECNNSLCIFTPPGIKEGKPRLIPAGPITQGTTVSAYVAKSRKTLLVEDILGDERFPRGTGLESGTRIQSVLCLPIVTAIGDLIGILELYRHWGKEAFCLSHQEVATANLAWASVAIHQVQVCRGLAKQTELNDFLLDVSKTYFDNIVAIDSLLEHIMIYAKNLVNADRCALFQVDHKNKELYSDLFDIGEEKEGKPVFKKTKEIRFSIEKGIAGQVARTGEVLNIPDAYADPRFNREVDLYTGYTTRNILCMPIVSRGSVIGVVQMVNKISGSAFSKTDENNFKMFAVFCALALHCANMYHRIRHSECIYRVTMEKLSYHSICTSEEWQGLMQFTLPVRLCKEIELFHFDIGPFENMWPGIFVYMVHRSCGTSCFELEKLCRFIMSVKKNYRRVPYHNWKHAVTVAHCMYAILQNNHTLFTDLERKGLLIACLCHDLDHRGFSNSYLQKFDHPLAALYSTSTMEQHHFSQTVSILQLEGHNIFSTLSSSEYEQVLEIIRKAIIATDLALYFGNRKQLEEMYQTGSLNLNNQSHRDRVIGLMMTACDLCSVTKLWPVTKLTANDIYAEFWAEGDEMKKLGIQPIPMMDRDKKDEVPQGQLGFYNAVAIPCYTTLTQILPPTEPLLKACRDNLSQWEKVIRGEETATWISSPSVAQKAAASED
metric: IC50 (nM)

O=C1CCc2ccc(NC(=O)c3nc(C4CC4)cnc3Nc3cncnc3)cc21 [Roche-Dataset for PDE10A, Compound 881]    27
COc1ncc(C2CC2)nc1C(=O)Nc1ccn2nc(-c3ccccc3)nc2c1 [Roche-Dataset for PDE10A, Compound 514]    17
Cc1ncc(C)n2nc(CCc3nc(N4CC[C@@H](C)[C@H]4C)nn3C)nc12 [Roche-Dataset for PDE10A, Compound 392]    43
CCN(C)C(=O)c1c(C(=O)Nc2ccn3cc(-c4ccccc4)nc3n2)cnn1C [Roche-Dataset for PDE10A, Compound 144]    10000
